# target: Human recombinant MMP-2 (Homo sapiens)
# Construct: made in house; host or cells: MMP-2-transfected p2AHT2 cells
# Sequence (P08253 110-660): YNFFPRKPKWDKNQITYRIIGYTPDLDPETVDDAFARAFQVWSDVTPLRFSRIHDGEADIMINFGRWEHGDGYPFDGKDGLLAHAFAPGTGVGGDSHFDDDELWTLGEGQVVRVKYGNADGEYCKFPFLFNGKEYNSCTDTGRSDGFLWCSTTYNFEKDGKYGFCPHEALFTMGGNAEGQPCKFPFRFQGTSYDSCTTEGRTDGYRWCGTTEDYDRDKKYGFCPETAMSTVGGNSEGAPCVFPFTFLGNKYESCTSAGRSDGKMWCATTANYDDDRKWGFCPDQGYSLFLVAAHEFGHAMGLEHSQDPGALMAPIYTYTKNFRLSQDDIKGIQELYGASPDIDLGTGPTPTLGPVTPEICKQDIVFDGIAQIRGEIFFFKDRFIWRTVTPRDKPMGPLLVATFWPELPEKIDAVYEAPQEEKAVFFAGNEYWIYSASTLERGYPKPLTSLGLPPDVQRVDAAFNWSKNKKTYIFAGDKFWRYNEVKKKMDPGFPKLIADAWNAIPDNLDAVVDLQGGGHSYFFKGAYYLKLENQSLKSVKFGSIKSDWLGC
# assay: In vitro MMP inhibition, Ki determination (fluorogenic substrate II)
# Assay type: biochemical
# condition-set: value in parenthesis
Form field: log10(Ki) (one value per entry).
Transform log10 | Measure Ki | Unit nM

[[record]]
structure_notation = "O=C(NO)C1(S(=O)(=O)c2ccc(OCCCc3cccc(Cc4ccccc4)c3)cc2)CCOCC1"
property_name = "log10(Ki)"
meas_value = 2.80

[[record]]
structure_notation = "O=C(NO)C1(S(=O)(=O)c2ccc(OCCCc3cccc(-c4ccccc4Cl)c3)cc2)CCOCC1"
property_name = "log10(Ki)"
meas_value = 3.37

[[record]]
structure_notation = "Cc1ccccc1-c1cccc(CCOc2ccc(S(=O)(=O)C3(C(=O)NO)CCOCC3)cc2)c1"
property_name = "log10(Ki)"
meas_value = 3.10


Prompt line: Any idea what log10(Ki) was measured for "O=C(NO)C1(S(=O)(=O)c2ccc(OCCc3cccc(-c4ccc(OC(F)(F)F)cc4)c3)cc2)CCOCC1" ?
Response line: 3.60

Prompt line: Any idea what log10(Ki) was measured for "O=C(NO)C1(S(=O)(=O)c2ccc(OCCCc3cccc(-c4ccc(F)c(F)c4)c3)cc2)CCOCC1" ?
Response line: 3.15

Prompt line: Any idea what log10(Ki) was measured for "O=C(CCCOc1ccc(S(=O)(=O)C2(C(=O)NO)CCOCC2)cc1)Nc1cccc(OC(F)(F)F)c1" ?
Response line: 1.20

Prompt line: Any idea what log10(Ki) was measured for "O=C(NO)C1(S(=O)(=O)c2ccc(OCCc3cccc(-c4ccncc4)c3)cc2)CCOCC1" ?
Response line: 1.63

Prompt line: Any idea what log10(Ki) was measured for "Cc1cc(OC(F)(F)F)ccc1NC(=O)CCCOc1ccc(S(=O)(=O)C2(C(=O)NO)CCOCC2)cc1" ?
Response line: 1.02

Prompt line: Any idea what log10(Ki) was measured for "Cc1ccccc1-c1cccc(CCCOc2ccc(S(=O)(=O)C3(C(=O)NO)CCOCC3)cc2)c1" ?
Response line: 2.99

Prompt line: Any idea what log10(Ki) was measured for "O=C(NO)C1(S(=O)(=O)c2ccc(OCCCc3nc(C4CCCCC4)no3)cc2)CCN(C2CC2)CC1" ?
Response line: 1.56

Prompt line: Any idea what log10(Ki) was measured for "O=C(NO)C1(S(=O)(=O)c2ccc(OCCc3cccc(-c4ccc(Cl)cc4Cl)c3)cc2)CCOCC1" ?
Response line: 3.76

Prompt line: Any idea what log10(Ki) was measured for "COCCN1CCC(C(=O)NO)(S(=O)(=O)c2ccc(OCCCc3nnc(-c4ccccc4C(F)(F)F)o3)cc2)CC1" ?
Response line: 1.59

Prompt line: Any idea what log10(Ki) was measured for "O=C(NO)C1(S(=O)(=O)c2ccc(OCCc3cccc(-c4ccccc4Cl)c3)cc2)CCOCC1" ?
Response line: 3.18

---

# target: Human recombinant MMP-9 (Homo sapiens)
# Construct: made in house; host or cells: MMP-9-transfected HT1080 cells (spent media)
# Sequence (P14780 107-707 limits assumed): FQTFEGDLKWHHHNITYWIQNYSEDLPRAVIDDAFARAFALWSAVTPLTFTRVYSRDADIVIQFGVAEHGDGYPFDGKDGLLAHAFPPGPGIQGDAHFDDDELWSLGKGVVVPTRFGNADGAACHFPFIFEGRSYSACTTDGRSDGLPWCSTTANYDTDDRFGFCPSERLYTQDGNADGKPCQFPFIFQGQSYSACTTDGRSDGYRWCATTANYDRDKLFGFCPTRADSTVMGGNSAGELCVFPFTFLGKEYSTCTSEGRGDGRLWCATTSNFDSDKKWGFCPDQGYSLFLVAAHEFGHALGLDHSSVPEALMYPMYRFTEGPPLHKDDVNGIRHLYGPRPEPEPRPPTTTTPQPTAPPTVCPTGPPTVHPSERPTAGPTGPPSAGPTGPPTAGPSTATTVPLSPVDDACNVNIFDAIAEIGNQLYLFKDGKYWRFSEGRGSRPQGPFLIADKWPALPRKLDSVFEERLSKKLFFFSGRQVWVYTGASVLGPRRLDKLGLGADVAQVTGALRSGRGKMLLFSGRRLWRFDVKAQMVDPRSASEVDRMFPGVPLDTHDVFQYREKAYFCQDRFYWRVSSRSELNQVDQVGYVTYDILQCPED
# assay: In vitro MMP inhibition, IC50 determination (fluorogenic substrate I)
# Type: biochemical
# condition-set: value outside parenthesis
# Method: Several hydroxamates and salts thereof were analyzed in in vitro assays to determine their ability to inhibit the MMP cleavage of peptide substrates. Inhibition (Ki) and IC50 constants were calculated from the assayed hydroxamate-MMP interactions. […] The assays from which the IC50 determinations were made were performed as follows. […] The assayed hydroxamate samples were, incubated in Microfluorrm White Plates (Dynatech, Chantilly, VA) and analyzed on a Perkin Elmer L550 plate reader (Norwalk, Conn.). […]
Form field: pIC50 (one value per entry).
Would you please state pIC50, meaning minus log10 of the concentration in mol/L, as a bare number?

Check out these entries, answers already filled in.
[[record]]
compound = "O=C(NO)C1(S(=O)(=O)c2ccc(OCCOc3cccc(-c4ccccc4)c3)cc2)CCOCC1"
target = "Human recombinant MMP-9 (Homo sapiens)"
property_name = "pIC50"
meas_value = 5.61

[[record]]
compound = "O=C(NO)C1(S(=O)(=O)c2ccc(OCCCc3nnc(Cl)o3)cc2)CCOCC1"
target = "Human recombinant MMP-9 (Homo sapiens)"
property_name = "pIC50"
meas_value = 6.97


Prompt line: Any idea what pIC50 was measured for "Cc1ccc(/C(C#N)=C/CCCOc2ccc(S(=O)(=O)C3(C(=O)NO)CCN(C4CC4)CC3)cc2)cc1C" ?
Response line: 5.35

---

Form field: pIC50 (one value per entry).
# target: Human recombinant MMP-14 (Homo sapiens, UniProt P50281)
# Construct: The catalytic domain enzyme was expressed in E. coli inclusion bodies, solubilized in urea; made in house
# assay: In vitro MMP inhibition, IC50 determination (fluorogenic substrate I)
# Type: biochemical
# condition-set: value outside parenthesis
Would you please state pIC50, meaning minus log10 of the concentration in mol/L, as a bare number?

[[record]]
structure_notation = "CCCc1ccc(-c2nc(CCCOc3ccc(S(=O)(=O)C4(C(=O)NO)CCN(CCOC)CC4)cc3)oc2C)cc1"
target = "Human recombinant MMP-14 (Homo sapiens, UniProt P50281)"
meas_value = 5.51

[[record]]
structure_notation = "COCCN1CCC(C(=O)NO)(S(=O)(=O)c2ccc(OCCCn3nnc(-c4ccc(SC)cc4)n3)cc2)CC1"
target = "Human recombinant MMP-14 (Homo sapiens, UniProt P50281)"
meas_value = 6.30


Switching to the query record.
Prompt line: Any idea what pIC50 was measured for "O=C(NO)C1(S(=O)(=O)c2ccc(OCCSc3nc4ccc(Cl)cc4o3)cc2)CCN(C2CC2)CC1" ?
Response line: 5.45

---

# target: Human recombinant MMP-9 (Homo sapiens)
# Construct: made in house; host or cells: MMP-9-transfected HT1080 cells (spent media)
# assay: In vitro MMP inhibition, IC50 determination (fluorogenic substrate I)
# Assay type: biochemical
# condition-set: value outside parenthesis
Form field: IC50 (one value per entry).

[[record]]
structure_notation = "CC[C@@H]1C(=O)N(CCCOc2ccc(S(=O)(=O)C3(C(=O)NO)CCOCC3)cc2)C(=O)N1c1ccccc1"
target = "Human recombinant MMP-9 (Homo sapiens)"
property_name = "IC50"
meas_value = "> 10 µM"

[[record]]
structure_notation = "CN(CCCOc1ccc(S(=O)(=O)C2(C(=O)NO)CCOCC2)cc1)C(=O)c1ccc2ccccc2c1"
target = "Human recombinant MMP-9 (Homo sapiens)"
property_name = "IC50"
meas_value = "> 10 µM"


Switching to the query record.
Prompt line: Any idea what IC50 was measured for "Cc1cc(NC(=O)CCCOc2ccc(S(=O)(=O)C3(C(=O)NO)CCOCC3)cc2)ccc1OC(C)C" ?
Response line: > 10 µM

---

# target: Human recombinant MMP-13 (Homo sapiens, UniProt P45452)
# Construct: made in house; host or cells: baculovirus / insect cells
# assay: In vitro MMP inhibition, IC50 determination (fluorogenic substrate I)
# Assay type: biochemical
# condition-set: value outside parentheses
property-name: log10(IC50) (log10 of the value in nM)
Transform log10 | Measure IC50 | Unit nM

Check out these entries, answers already filled in.
[[record]]
molecule = "O=C(NO)C1(S(=O)(=O)c2ccc(OCCCc3cncc(-c4ccccc4)c3)cc2)CCOCC1"
meas_value = -0.70

[[record]]
molecule = "COc1ccc(C(=N)NCCCOc2ccc(S(=O)(=O)C3(C(=O)NO)CCOCC3)cc2)cc1"
meas_value = 1.18

[[record]]
molecule = "O=C(NO)C1(S(=O)(=O)c2ccc(OCCOCc3cccc([N+](=O)[O-])c3)cc2)CCOCC1"
meas_value = -0.05

[[record]]
molecule = "O=C(NCCOc1ccc(S(=O)(=O)C2(C(=O)NO)CCOCC2)cc1)c1ccc(Br)s1"
meas_value = 0.61

[[record]]
molecule = "O=C(NO)C1(S(=O)(=O)c2ccc(OCCCc3cc(-c4ccc(F)cc4)cs3)cc2)CCOCC1"
meas_value = -1.00


Switching to the query record.
Prompt line: Write down the reported log10(IC50) of O=C(NO)C1(S(=O)(=O)c2ccc(OCCCc3cccc(C4CCCCN4)c3)cc2)CCN(C2CC2)CC1 (stereo not shown) , test system: Human recombinant MMP-13 (Homo sapiens, UniProt P45452).
Response line: 0.89

---

# target: Human recombinant MMP-13 (Homo sapiens, UniProt P45452)
# Construct: made in house; host or cells: baculovirus / insect cells
# assay: In vitro MMP inhibition, IC50 determination (fluorogenic substrate I)
# Format: biochemical
# condition-set: value outside parenthesis
property-name: pIC50
Would you please state pIC50, meaning minus log10 of the concentration in mol/L, as a bare number?

Check out these entries, answers already filled in.
[[record]]
structure_notation = "O=C(NO)C1(S(=O)(=O)c2ccc(OCCSc3nc4ccc(Cl)cc4o3)cc2)CCN(C2CC2)CC1"
property_name = "pIC50"
meas_value = 9.52

[[record]]
structure_notation = "O=C(NO)C1(S(=O)(=O)c2ccc(OCCCc3cccc(-c4ccccc4)c3)cc2)CCOCC1"
property_name = "pIC50"
meas_value = 8.74

[[record]]
structure_notation = "O=C(NO)C1(S(=O)(=O)c2ccc(OCCCSc3nc4ccccc4o3)cc2)CCN(C2CC2)CC1"
property_name = "pIC50"
meas_value = 9.00


Prompt line: Any idea what pIC50 was measured for "CCc1ccc(N2CCN(CCCOc3ccc(S(=O)(=O)C4(C(=O)NO)CCOCC4)cc3)C2=O)cc1" ?
Response line: 8.02

Prompt line: Any idea what pIC50 was measured for "CCc1ccccc1-c1noc(CCCOc2ccc(S(=O)(=O)C3(C(=O)NO)CCN(CCOC)CC3)cc2)n1" ?
Response line: 8.01

Prompt line: Any idea what pIC50 was measured for "O=C(NO)C1(S(=O)(=O)c2ccc(OCCCc3cccc(-c4ccncc4)c3)cc2)CCOCC1" ?
Response line: 8.89
